Origin of the recorded values: PubChem BioAssay (NCATS)

- System: CP247
- Protocol Summary: qHTS profiling for inhibitors of Plasmodium falciparum proliferation (AID 504749); further: nearly all actives have a fitted effect of over 60% in size
- Recorded Conditions: P. falciparum in erythrocytes, SYBR Green DNA, 72 h; series mostly up to 12.8 µM
Records with an inconclusive call do not appear. Activity calls are given as the source filed them. The call rests on the fitted dose curve; in most records, active means well fitted inhibition curve with a large enough effect; inconclusive means small, poorly fitted or top-dose-only effect; inactive means flat fitted curve, though single readings scatter.
Attribute Measured: outcome

// worked examples, outcome included
{"Compound": "COc1ccc(C[C@@](C)(N)C(=O)O)cc1OC", "Attribute Measured": "outcome", "Obs Value": "inactive"}
{"Compound": "C1CCN2C[C@@H]3C[C@@H](CN4CCCC[C@H]34)[C@H]2C1", "Attribute Measured": "outcome", "Obs Value": "inactive"}
{"Compound": "CC1(C)OC2CO[C@]3(COS(N)(=O)=O)OC(C)(C)OC3C2O1 (stereo not given in full)", "Attribute Measured": "outcome", "Obs Value": "inactive"}
{"Compound": "CCC(CCC(C)C1CCC2C3CC=C4CC(O)CC[C@@]4(C)C3CC[C@@]12C)C(C)C (stereo not given in full)", "Attribute Measured": "outcome", "Obs Value": "inactive"}

Okay, next one:
Lookup: Find the measured outcome: item C=CC1=C(C(=O)O)N2C(=O)[C@@H](NC(=O)/C(=N\OCC(=O)O)c3csc(N)n3)[C@@H]2SC1 , target or system CP247.
Found: inactive
